IC50 by entry:
- SYSTEM_TESTED: E. coli Endo IV (Escherichia coli)
- Construct: made in house
- TEST_METHOD_NOTES: E. coli Endo IV profiling counterscreen;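 further: selectivity counterscreen of candidate APE1 inhibitors against the bacterial endonuclease Endo IV, run in the same assay format as the primary APE1 high-throughput screen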
- Format: biochemical
- REPORTED_CONDITIONS: read-out: EndoIV IC50

As a guide, the following entries are already answered.
# COMPOUND, IC50
data = [
    ("COc1ccc(NC(=O)c2cc(-c3ccco3)nc3ccccc23)cn1", "22.9 µM"),
    ("N#C/C(=C\\c1ccc(O)c(O)c1)C(=O)Nc1cccc2ncccc12", "> 57 µM"),
    ("Cc1cccn2c(=O)c3cc(C(=O)NCc4ccco4)c(=N)n(C4CCCCC4)c3nc12", "> 57 µM"),
    ("CC(=O)c1ccc(NC(=O)c2ccc3nc(-c4ccco4)c(-c4ccco4)nc3c2)cc1", "10 µM"),
    ("CCN(CC(=O)Nc1c(F)cccc1F)C(=O)/C=C/c1ccc2ccccc2n1", "> 57 µM"),
    ("Cc1c(C(=O)OCC2CCCO2)[nH]c2c1C(=O)CC(c1ccco1)C2 (stereo not drawn)", "> 57 µM"),
    ("O=c1oc2c(cc1O)oc(=O)c1cc(O)c(O)c(O)c12", "> 57 µM"),
    ("COc1ccc(NC(=O)COC(=O)c2cc3c(s2)CCC3)cc1", "> 57 µM"),
    ("CC1=C(C(=O)OC(C)C)C(c2ccc(Cl)cc2)n2c(s/c(=C\\c3ccc(OCC(=O)O)cc3)c2=O)=N1 (stereo not drawn)", "> 57 µM"),
    ("O=C(O)c1ccccc1-c1ccc(/C=c2\\sc3nc4cc(Br)cnc4n3c2=O)o1", "> 57 µM"),
]

Value of measured IC50 for the entry CC(=O)Oc1cc(C(=O)OCC(=O)N2CCc3ccccc3C2)cc(OC(C)=O)c1OC(C)=O : > 57 µM

Short answer for Cc1cc(/C=C2\C(=O)NC(=O)N(Cc3ccccc3Cl)C2=O)c(C)n1-c1ccc(C(=O)O)cc1 : IC50 was > 57 µM

// IC50 value for O=C(NC1CC1)c1cc(-c2ccco2)nc2ccccc12 : > 57 µM

Reported IC50 ( CCn1c(SCC(=O)O)nc2sc3c(c2c1=O)CCC3 ) = > 57 µM

O=C(N/N=C/c1cccn1-c1cccc(C(=O)O)c1)Nc1ccccc1 has a reported IC50 of > 57 µM

Please fill in: IC50 reported for O=C(O)CCCN1C(=O)/C(=C/C=C/c2ccco2)SC1=S = > 57 µM

Entry under test: O=C(C[C@@H]1C/C=C\C[C@H](NC(=O)OCC2c3ccccc3-c3ccccc32)C(=O)OC[C@@H]2CCCN2C1=O)NCCO . Its IC50 was > 57 µM

For reference, reported IC50 for O=C(O)C1Nc2ccc(Br)cc2C2C=CCC12 (stereo not drawn) stands at > 57 µM

Item: COc1ccc(CCn2c(O)cc3nn(-c4nc5ccccc5s4)c(=O)c-3c2C)cc1 | IC50: > 57 µM

IC50 measured on CSC1=N/C(=C\c2ccc(Br)o2)C(=O)S1 = > 57 µM
